Origin of values: ChEMBL document CHEMBL4414574

Experiment: Half life in mouse liver microsomes at 1 uM preincubated for 5 mins followed by NADPH addition and measured after 5 to 30 mins by LC/MS/MS analysis
Format: ADME, Microsome
Details: mouse liver microsomes
Measurement Name: half-life at 1 µM (min)
Just the number in min, nothing appended.

Consider the worked cases shown below.
- Compound: "Cc1ccc(-n2nc(C(=O)N3CCN(C)CC3)nc2-c2ccc3c(c2)N(C2CCCC2)[C@H](C)C(=O)N3C)cc1"
  Uom: "min"
  half-life at 1 µM: 41
- Compound: "Cc1ccc(-n2c(C)nnc2-c2ccc3c(c2)N(C2CC2)C(C)C(=O)N3C)cc1 (stereo not drawn)"
  Uom: "min"
  half-life at 1 µM: 3

Turning now to a further record.
In: Let me know recorded half-life at 1 µM for Cc1ccc(-n2nc(C(=O)N3CCN(C)CC3)nc2-c2ccc3c(c2)N(C2CC2)C(C)C(=O)N3C)cc1 (stereo not drawn) , thanks.
Out: 107
